Recorded protein stability index for the following variants
B1: C1orf137 (parent)
chain: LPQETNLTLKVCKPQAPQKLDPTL

Variants of: B1
Test: protein stability index of a GFP-peptide fusion (GPS, HEK-293T) (PSI 1-6); higher = more stable;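 also: lentivirally expressed fusions sorted by FACS into six bins by GFP to DsRed ratio, PSI derived from sequencing read proportions per bin multiplied by bin number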
Conditions: c terminus: a fixed tail appended
The response must contain the number and no unit.

Answered examples (2):
L24H
4.75
Q15M
3.28

Briefly, protein stability index measured for K19R : 3.55

Briefly, protein stability index measured for Q15N : 4.04

Briefly, protein stability index measured for T5K : 3.64

Briefly, protein stability index measured for L24M : 3.94

Briefly, protein stability index measured for L20H : 4.43

Briefly, protein stability index measured for L7N : 4.66

Briefly, protein stability index measured for K19F : 2.96

Briefly, protein stability index measured for T23G : 3.8

Briefly, protein stability index measured for T8A : 4.3

Briefly, protein stability index measured for L9E : 4.76
